# target: Human vitronectin receptor (αv β3) (Homo sapiens, UniProt P05106+P06756)
# Construct: Human vitronectin receptor (αv β3) was purified from human placenta; from tissue; host or cells: human placenta
# Sequence (P06756 31-889 limits assumed): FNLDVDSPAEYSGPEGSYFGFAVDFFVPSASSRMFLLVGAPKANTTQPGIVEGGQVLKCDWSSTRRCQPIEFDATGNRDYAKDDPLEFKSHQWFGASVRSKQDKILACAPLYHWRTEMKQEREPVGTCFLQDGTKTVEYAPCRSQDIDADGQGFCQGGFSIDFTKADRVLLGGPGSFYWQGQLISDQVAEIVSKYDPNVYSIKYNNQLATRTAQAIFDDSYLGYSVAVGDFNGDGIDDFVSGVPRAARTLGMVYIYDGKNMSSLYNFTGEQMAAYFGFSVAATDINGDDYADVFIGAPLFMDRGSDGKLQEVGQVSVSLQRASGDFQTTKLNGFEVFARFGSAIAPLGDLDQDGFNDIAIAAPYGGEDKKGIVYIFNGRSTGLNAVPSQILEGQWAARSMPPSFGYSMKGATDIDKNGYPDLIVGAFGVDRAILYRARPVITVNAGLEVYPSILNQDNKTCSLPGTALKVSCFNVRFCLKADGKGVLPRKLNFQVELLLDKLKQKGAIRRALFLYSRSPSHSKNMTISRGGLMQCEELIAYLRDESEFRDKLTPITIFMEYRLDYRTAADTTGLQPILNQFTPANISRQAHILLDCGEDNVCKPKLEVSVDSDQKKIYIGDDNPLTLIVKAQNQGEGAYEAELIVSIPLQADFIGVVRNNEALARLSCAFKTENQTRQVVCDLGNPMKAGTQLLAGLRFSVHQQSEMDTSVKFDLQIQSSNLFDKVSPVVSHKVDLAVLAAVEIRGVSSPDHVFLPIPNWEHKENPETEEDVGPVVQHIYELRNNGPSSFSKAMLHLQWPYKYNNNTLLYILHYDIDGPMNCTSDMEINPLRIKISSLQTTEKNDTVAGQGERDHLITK
# Sequence (P06756 891-1048 limits assumed): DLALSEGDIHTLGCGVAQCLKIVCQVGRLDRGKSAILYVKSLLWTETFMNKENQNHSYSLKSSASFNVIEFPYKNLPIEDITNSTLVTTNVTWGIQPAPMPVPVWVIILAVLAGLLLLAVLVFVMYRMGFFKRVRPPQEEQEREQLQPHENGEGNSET
# Sequence (P05106 27-788): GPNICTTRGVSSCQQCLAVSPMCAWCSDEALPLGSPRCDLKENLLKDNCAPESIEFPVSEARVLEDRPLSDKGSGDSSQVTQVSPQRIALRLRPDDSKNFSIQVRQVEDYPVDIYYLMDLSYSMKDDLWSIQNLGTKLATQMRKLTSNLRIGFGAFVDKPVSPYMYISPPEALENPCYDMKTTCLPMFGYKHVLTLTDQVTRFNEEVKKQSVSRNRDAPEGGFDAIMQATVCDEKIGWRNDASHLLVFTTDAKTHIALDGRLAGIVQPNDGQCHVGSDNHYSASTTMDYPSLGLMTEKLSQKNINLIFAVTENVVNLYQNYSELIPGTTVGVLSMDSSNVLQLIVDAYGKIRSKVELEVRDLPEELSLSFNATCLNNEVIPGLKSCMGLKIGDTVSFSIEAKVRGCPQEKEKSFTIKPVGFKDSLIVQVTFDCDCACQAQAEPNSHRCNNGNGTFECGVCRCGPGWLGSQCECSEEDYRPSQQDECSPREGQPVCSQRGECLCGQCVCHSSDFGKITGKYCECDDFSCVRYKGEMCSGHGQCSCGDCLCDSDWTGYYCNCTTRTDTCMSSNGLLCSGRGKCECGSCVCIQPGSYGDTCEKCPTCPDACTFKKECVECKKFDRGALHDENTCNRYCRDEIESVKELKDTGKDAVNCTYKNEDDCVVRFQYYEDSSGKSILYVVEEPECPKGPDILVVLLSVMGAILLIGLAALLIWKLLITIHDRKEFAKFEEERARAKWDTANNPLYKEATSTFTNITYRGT
# test-summary: Vitronectin adhesion assay (solid phase receptor assay, αvβ3)
# Assay type: binding
# reported-conditions: inhibition of binding of biotinylated human vitronectin (1 nM) to purified receptor; Table I; read-out: AvB3 IC50
Where a name gives a salt, the structure may show the parent alone.
experimental-endpoint: IC50 (nM)

molecule	IC50, nM
CCc1cc(/C=C/C(=O)O)ccc1NC(=O)c1cccc(NC2=NCCCN2)c1 [Example 19, trifluoroacetate salt]	0.53
N=C(N)Nc1cccc(C(=O)Nc2ccc(/C=C/C(=O)O)c(Cl)c2)c1 [Example 28, trifluoroacetate salt]	23.3
O=C(O)/C=C/c1cccc(C(=O)COc2cccc(NC3=NCCN3)c2)c1 [Example 83, trifluoroacetate salt]	21.7
N=C(N)Nc1cccc(CCC(=O)c2cccc(/C=C/C(=O)O)c2)c1 [Example 92, trifluoroacetate salt]	48.9
COc1cc(NC(=O)c2cccc(NC(=N)N)c2)ccc1/C=C/C(=O)O [Example 31, trifluoroacetate salt]	9.66

1. O=C(O)/C=C/c1ccc(NC(=O)c2cccc(NC3=NCCCN3)c2)c(Cl)c1 [Example 22, trifluoroacetate salt]
2. O=C(O)/C=C/c1cccc(CCC(=O)c2cccc(NC3=NCCCN3)c2)c1 [Example 95, trifluoroacetate salt hydrate]
Prompt: Among 1 and 2 , whose measured IC50 is the smaller figure? Reply with the label of the item you choose.
Response: 1
(1: 0.48 nM, 2: 58.5 nM)

Values compiled from patent US5852210A.
